- tested system: T1, human GPC3 (human, UniProt P51654 25-563)
- T1 construct: range 25-563; soluble analyte; also called soluble human GPC3; glypican 3
- T1 sequence (P51654 25-563 limits assumed): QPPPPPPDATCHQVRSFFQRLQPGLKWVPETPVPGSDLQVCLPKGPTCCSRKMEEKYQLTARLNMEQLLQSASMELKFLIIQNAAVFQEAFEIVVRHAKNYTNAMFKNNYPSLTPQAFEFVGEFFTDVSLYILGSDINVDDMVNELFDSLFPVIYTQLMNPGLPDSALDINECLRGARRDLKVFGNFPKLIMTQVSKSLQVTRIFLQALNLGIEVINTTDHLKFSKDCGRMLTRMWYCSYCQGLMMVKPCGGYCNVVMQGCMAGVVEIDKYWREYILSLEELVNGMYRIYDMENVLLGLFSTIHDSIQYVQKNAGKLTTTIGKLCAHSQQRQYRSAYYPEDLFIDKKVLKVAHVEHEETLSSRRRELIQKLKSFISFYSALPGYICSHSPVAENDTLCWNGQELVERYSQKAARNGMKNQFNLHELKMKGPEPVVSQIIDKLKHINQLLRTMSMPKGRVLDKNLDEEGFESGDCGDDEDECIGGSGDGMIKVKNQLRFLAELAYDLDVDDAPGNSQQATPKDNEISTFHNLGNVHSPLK
- test details: SPR
readout type: Kd (nM)
Respond with the bare value in nM.

These recorded examples may help you get a feel for the data.
binder	unit annotation	Kd
GCH054-G1dh/none-Hi-Kn010G3/L0215-k0 (antibody, V domains shown, one-arm) VH: QVQLVQSGAEVKKPGASVTVSCKASGYTFTDYEMHWIRQPPGEGLEWIGAIDGETPDTAYSEKFKGRVTLTADKSTSTAYMELSSLTSEDTAVYYCTRFYSYTYWGQGTLVTVSS VL: DIVMTQSPLSLPVTPGEPASISCRSSQPPVHSNRNTYIHWYQQKPGQAPRLLIYKVSNRFSGVPDRFSGSGSGTDFTLKISRVEAEDVGVYYCGQGTQVPYTFGQGTKLEIK	nM	1.62
H0610-G1dh/none-Hi-Kn010G3/L0181-k0 (antibody, V domains shown, one-arm) VH: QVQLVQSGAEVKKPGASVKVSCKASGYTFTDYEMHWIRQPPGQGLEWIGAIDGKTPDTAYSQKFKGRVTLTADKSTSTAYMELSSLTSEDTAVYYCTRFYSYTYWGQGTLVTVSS VL: DIVMTQSPLSLPVTPGEPASISCRSSQSLVHSNRNTYLHWYQQKPGQAPRLLIYKVSNRFSGVPDRFSGSGSGTDFTLKISRVEAEDVGVYYCGQGTQPPYTFGQGTKLEIK	nM	3.51

GET /values?readout=Kd&item= H0610-G1dh/none-Hi-Kn010G3/L0229-k0 (antibody, V domains shown, one-arm) VH: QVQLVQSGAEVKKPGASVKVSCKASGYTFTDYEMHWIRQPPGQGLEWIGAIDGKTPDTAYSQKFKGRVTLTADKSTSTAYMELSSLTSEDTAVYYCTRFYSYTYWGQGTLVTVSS VL: DIVMTQSPLSLPVTPGEPASISCRSSQSPVHSNRNTYIHWYQQKPGQAPRLLIYKVSNRFSGVPDRFSGSGSGTDFTLKISRVEAEDVGVYYCYQSTQVPYTFGQGTKLEIK
1.2

Entry source: patent US20250066503A1
